Biological target: CDK7H (Homo sapiens)
Sequence (P50613 whole entry): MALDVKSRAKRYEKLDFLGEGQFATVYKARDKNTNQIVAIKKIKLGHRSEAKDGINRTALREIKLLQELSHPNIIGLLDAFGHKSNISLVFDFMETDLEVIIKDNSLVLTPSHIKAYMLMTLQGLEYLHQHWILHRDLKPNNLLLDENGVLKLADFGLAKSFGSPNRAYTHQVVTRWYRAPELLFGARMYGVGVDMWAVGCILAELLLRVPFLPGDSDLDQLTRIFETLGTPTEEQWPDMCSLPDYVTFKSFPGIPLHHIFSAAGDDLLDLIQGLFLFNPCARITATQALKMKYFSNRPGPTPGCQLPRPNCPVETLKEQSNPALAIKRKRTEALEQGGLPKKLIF
Sequence (P51946 whole entry partner): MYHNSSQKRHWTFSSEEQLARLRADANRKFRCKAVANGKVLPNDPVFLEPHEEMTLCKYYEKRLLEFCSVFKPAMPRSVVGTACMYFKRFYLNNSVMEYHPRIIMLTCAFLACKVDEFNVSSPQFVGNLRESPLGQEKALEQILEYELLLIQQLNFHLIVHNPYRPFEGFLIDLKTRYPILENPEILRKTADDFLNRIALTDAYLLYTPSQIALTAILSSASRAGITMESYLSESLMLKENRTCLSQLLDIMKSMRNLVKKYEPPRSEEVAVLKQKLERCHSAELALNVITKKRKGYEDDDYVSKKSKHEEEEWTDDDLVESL
Sequence (P51948 whole entry partner): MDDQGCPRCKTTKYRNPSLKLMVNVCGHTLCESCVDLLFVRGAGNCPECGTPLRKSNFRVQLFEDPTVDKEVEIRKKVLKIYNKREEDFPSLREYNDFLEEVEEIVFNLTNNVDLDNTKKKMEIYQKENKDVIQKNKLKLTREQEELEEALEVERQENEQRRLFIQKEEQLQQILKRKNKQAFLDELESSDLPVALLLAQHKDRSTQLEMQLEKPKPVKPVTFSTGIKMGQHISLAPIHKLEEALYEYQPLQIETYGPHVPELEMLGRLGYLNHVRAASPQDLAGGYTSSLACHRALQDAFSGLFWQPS
Assay: Kinase assay CDK7H (radiometric profiling service)
Assay type: biochemical
Conditions: compound at 10 μM; read-out: % remaining enzymatic activity at 10 μM CDK7H
Protocol: Eurofins Pharma Discovery or Reaction Biology Corporation Kinase Profiler services were used to measure inhibition of CDKs and other kinases by radiometric assay. Inhibition of CDK4/D1, CDK6/D3 and CDK9/T1 were also determined in-house using ADP Glo Kinase assays (Promega Corporation, Madison, USA). […] Luminescence was measured using an EnVision Multilabel plate reader (PerkinElmer, Buckinghamshire, UK). […]
Record form. Attribute: remaining activity at 10 µM. Fill in for each entry.
Numbers only, in %.

Solved entries:
- sample_smiles: "Cc1c(-c2ccnc(Nc3ccc(N4CCN(C)CC4)cn3)n2)sc(=O)n1C"
  assayed_system: "CDK7H (Homo sapiens)"
  measurement_units: "%"
  remaining activity at 10 µM: 52
- sample_smiles: "CSc1nc(C)c(-c2ccnc(Nc3ccc(N4CCN(C(C)=O)CC4)cn3)n2)s1"
  assayed_system: "CDK7H (Homo sapiens)"
  measurement_units: "%"
  remaining activity at 10 µM: 86
- sample_smiles: "CC(=O)N1CCN(c2ccc(Nc3nccc(-c4sc(=O)[nH]c4C)n3)nc2)CC1"
  assayed_system: "CDK7H (Homo sapiens)"
  measurement_units: "%"
  remaining activity at 10 µM: 68

[ask] Reported remaining activity at 10 µM for CNc1nc(C)c(-c2nc(Nc3ccc(N4CCN(C)CC4)cn3)ncc2C#N)s1 : what is it?
[reply] 43

---

Target: CDK1B (Homo sapiens, UniProt P06493)
Sequence (P06493 whole entry): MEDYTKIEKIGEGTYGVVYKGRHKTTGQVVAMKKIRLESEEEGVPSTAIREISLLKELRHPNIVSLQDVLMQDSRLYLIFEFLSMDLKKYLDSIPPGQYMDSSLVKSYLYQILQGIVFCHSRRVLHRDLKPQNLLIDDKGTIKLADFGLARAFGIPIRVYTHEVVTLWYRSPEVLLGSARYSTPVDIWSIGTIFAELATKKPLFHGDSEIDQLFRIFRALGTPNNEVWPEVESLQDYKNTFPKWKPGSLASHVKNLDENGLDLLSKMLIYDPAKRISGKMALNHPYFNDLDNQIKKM
Sequence (P14635 whole entry partner): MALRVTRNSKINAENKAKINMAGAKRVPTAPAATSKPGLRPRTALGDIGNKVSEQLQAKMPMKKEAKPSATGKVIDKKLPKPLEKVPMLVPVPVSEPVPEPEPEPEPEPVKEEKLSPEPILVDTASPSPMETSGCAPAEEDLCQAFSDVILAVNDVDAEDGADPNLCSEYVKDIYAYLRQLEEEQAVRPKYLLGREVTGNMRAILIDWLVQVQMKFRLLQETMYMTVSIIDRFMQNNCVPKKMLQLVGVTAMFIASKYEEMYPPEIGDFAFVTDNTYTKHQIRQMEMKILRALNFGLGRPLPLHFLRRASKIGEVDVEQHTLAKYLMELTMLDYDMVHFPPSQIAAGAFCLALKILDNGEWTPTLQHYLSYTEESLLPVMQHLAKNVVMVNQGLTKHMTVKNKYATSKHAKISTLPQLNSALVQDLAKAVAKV
Can you tell me pKi for the items I'm about to list?
One number for each entry, as −log10 of the molar value.

- sample_smiles: "Cc1nc(NC2CCCC2)sc1-c1nc(Nc2ccc(N3CCNCC3)cn2)ncc1F"
  assayed_system: "CDK1B (Homo sapiens, UniProt P06493)"
  pKi: 5.65
- sample_smiles: "CNc1nc(C)c(-c2ccnc(Nc3ccc(N4CCN(C)CC4)cn3)n2)s1"
  assayed_system: "CDK1B (Homo sapiens, UniProt P06493)"
  pKi: 5.49
- sample_smiles: "Cc1nc(C(C)C)sc1-c1ccnc(Nc2ccc(N3CCN(C)CC3)cn2)n1"
  assayed_system: "CDK1B (Homo sapiens, UniProt P06493)"
  pKi: 5.47
- sample_smiles: "CNc1nc(C)c(-c2nc(Nc3ccc(N4CCCNCC4)cn3)ncc2F)s1"
  assayed_system: "CDK1B (Homo sapiens, UniProt P06493)"
  pKi: 5.63
- sample_smiles: "CC(=O)N1CCN(c2ccc(Nc3nccc(-c4sc(NC(C)C)nc4C)n3)nc2)CC1"
  assayed_system: "CDK1B (Homo sapiens, UniProt P06493)"
  pKi: 5.57

Provide pKi for all items below, preserving their order.
1. CNc1nc(C)c(-c2ccnc(Nc3ccc(N4CCN(Cc5ccccc5)CC4)cc3)n2)s1
2. CNc1nc(C)c(-c2nc(Nc3ccc(N4CCN(C(C)=O)CC4)cn3)ncc2F)s1

[reply]
[6.88, 5.74]

---

Ki, CDK6D3 (Homo sapiens): measured values
One number for each entry, in nM.

These solved cases illustrate the format of a correct answer.
- compound: "CNc1nc(C)c(-c2nc(Nc3ccc(N4CCN(Cc5ccccc5)CC4)cc3)ncc2C#N)s1 [Compound 42]"
  assayed_system: "CDK6D3 (Homo sapiens)"
  measurement_units: "nM"
  reported: 36
- compound: "Cc1nc(N(C)C)sc1-c1ccnc(Nc2ccc(N3CCNCC3)cn2)n1 [Compound 43]"
  assayed_system: "CDK6D3 (Homo sapiens)"
  measurement_units: "nM"
  reported: 56
- compound: "Cc1nc(NC(C)C)sc1-c1ccnc(Nc2ccc(N3CCCNCC3)cn2)n1 [Compound 59]"
  assayed_system: "CDK6D3 (Homo sapiens)"
  measurement_units: "nM"
  reported: 28

Next up:
[ask] Returns the measured Ki for the input compound. Input: CCc1nc(C)c(-c2ccnc(Nc3ccc(N4CCN(CC)CC4)cn3)n2)s1 [Compound 9]
[reply] 1670

// provenance: patent USRE49850E1
